assay: Solubility was measured in saline at 25 degree C; type: physicochemical
Result type: solubility (mg/mL)
Numbers only, in mg/mL.

These recorded examples may help you get a feel for the data.
1) CN[C@H](CC(C)C)C(=O)N[C@H]1C(=O)N[C@@H](CC(N)=O)C(=O)N[C@H]2C(=O)N[C@H]3C(=O)N[C@H](C(=O)N[C@H](C(=O)O)c4cc(O)cc(O)c4-c4cc3ccc4O)[C@H](O)c3ccc(c(Cl)c3)Oc3cc2cc(c3OC2OC(CO)C(O)C(O)C2OC2CC(C)(NC(=O)OCc3cc(C)c(OC(=O)NCCOCCO)c(C)c3)C(O)C(C)O2)Oc2ccc(cc2Cl)[C@H]1O (some centres undefined)
141
2) CN[C@H](CC(C)C)C(=O)N[C@H]1C(=O)N[C@@H](CC(N)=O)C(=O)N[C@H]2C(=O)N[C@H]3C(=O)N[C@H](C(=O)N[C@H](C(=O)O)c4cc(O)cc(O)c4-c4cc3ccc4O)[C@H](O)c3ccc(c(Cl)c3)Oc3cc2cc(c3OC2OC(CO)C(O)C(O)C2OC2CC(C)(NC(=O)OCc3cc(C)c(OC(=O)CNC(=O)COCCO)c(C)c3)C(O)C(C)O2)Oc2ccc(cc2Cl)[C@H]1O (some centres undefined)
145
3) CN[C@H](CC(C)C)C(=O)N[C@H]1C(=O)N[C@@H](CC(N)=O)C(=O)N[C@H]2C(=O)N[C@H]3C(=O)N[C@H](C(=O)N[C@H](C(=O)O)c4cc(O)cc(O)c4-c4cc3ccc4O)[C@H](O)c3ccc(c(Cl)c3)Oc3cc2cc(c3OC2OC(CO)C(O)C(O)C2OC2CC(C)(NC(=O)OCc3cc(C)c(OC(=O)COCCO)c(C)c3)C(O)C(C)O2)Oc2ccc(cc2Cl)[C@H]1O (some centres undefined)
131

Lookup: I would be grateful if you could share the reported solubility for CN[C@H](CC(C)C)C(=O)N[C@H]1C(=O)N[C@@H](CC(N)=O)C(=O)N[C@H]2C(=O)N[C@H]3C(=O)N[C@H](C(=O)N[C@H](C(=O)O)c4cc(O)cc(O)c4-c4cc3ccc4O)[C@H](O)c3ccc(c(Cl)c3)Oc3cc2cc(c3OC2OC(CO)C(O)C(O)C2OC2CC(C)(NC(=O)OCc3cc(C)c(OC(=O)C(C)NC(=O)COCCO)c(C)c3)C(O)C(C)O2)Oc2ccc(cc2Cl)[C@H]1O (some centres undefined) .
Found: 122
